Molecular target: DNA polymerase beta (Homo sapiens)
Assay: qHTS Assay for Inhibitors of DNA Polymerase Beta
Conditions: Pol beta primer extension/strand displacement, fluorescence kinetic; series mostly up to 114 µM
Method: The base excision repair system in human cells is a target for therapeutic modulation of the response to irradiation treatment and DNA-damaging drugs. […] A stepwise description of the 1536-well assay is shown in next Table. […] The plates were incubated for 15 min at room temperature, and 1 uL substrate (50 nM final concentration) were added to start the reaction and immediately read at 0 min read on Viewlux reader. […]
Among all 340,000 compounds or so, about 4,500 (1.3%) were called active. About 5% were inconclusive and are not listed. Calls come from the whole dose curve; as a rule, active = well fitted inhibition curve with a large enough effect; inconclusive = small, poorly fitted or top-dose-only effect, or another doubt; inactive = no such curve, though single readings can be large or run the other way. The entries come from a sample that favours actives as a whole.
Select the matching outcome among active, inactive

Solved cases below.
NCCc1c[nH]c2ccc(O)cc12    inactive
Cc1cccc(N2C(=O)NC(=O)/C(=C\c3cnn(-c4ccccc4)c3)C2=O)c1    active
Cc1cc2ccccn2c1C(C[N+](=O)[O-])c1c(F)cccc1Cl (configuration not stated)    inactive
Cc1c(C(=O)O)cccc1-n1c(C)cc(/C=C2\C(=O)NC(=O)N(c3ccc4c(c3)OCO4)C2=O)c1C    active
COc1ccccc1N=Nc1c(O)[nH]c(=S)[nH]c1=O    inactive
CCN(CC)C(=O)c1ccc(NC(=O)c2sccc2-c2ccccc2)cc1    inactive

Status in this test for O=C(CN1CCCC1=O)NCCc1ccccc1 ?
inactive

Hi, do you know how Cc1ccc(-n2c(/C=C/c3cccc(C(F)(F)F)c3)nc3ccccc3c2=O)cc1 came out in this test?
inactive

Called result for C=CCN(CC=C)C(=O)Nc1ccc(OCC)cc1
inactive

Given Cc1cccc(Cn2cccc(C(=O)Nc3ccc4c(c3)OCCO4)c2=O)c1 , state the outcome it received in this test.
inactive

Lab log entry: Cc1nc2ccccc2c(=O)n1-c1ccc(Cl)cc1Cl — outcome as called in the assay?
inactive

Please share the test call associated with OC(Cn1c2ccccc2c2ccccc21)C[n+]1ccccc1 (configuration not stated) .
inactive

Record lookup: outcome of this test for COc1ccc(N2C(=O)/C(=C/c3ccco3)C(=O)NC2=S)cc1 ?
active

Please state the recorded outcome for this compound: O=C1NC(=O)N(c2ccccc2)C(=O)/C1=C/c1ccc([N+](=O)[O-])s1
inactive

What classification did O=C1CC(=O)N(Cc2ccccc2)C(=O)N1CCCCCCN1C(=O)CC(=O)N(Cc2ccccc2)C1=O end up with in this test?
active

Please state the recorded outcome for this compound: Cc1nnc(NC(=O)c2cccn(Cc3cccc(F)c3)c2=O)s1
inactive

Check the results log: what was the call for Cc1ccccc1N1C(=O)NC(=O)/C(=C\c2cc(C)n(C)c2C)C1=O ?
inactive

Please let me know the test result on file for C[N+]12CN3CN(CN(C3)C1)C2 .
inactive

Tell me the assay call for COc1ccccc1N1CCN(C(CNC(=O)Oc2ccccc2)c2cccnc2)CC1 (configuration not stated) please.
inactive

Any idea what this test logged for CCOCCc1c(O)[nH]c(=S)[nH]c1=O ?
active

Query: recorded result category for O=C1NC(=O)N(c2ccc(F)cc2)C(=O)/C1=C/c1ccc2c(c1)CCCN2Cc1ccccc1 in this test
inactive

Test call for this compound, please: Cc1cc(/C=C2/C(=O)NC(=O)N(Cc3ccco3)C2=O)c(C)n1-c1ccc(C(=O)O)cc1
active
